B1: TRIM9 (parent)
chain: CVQCKMPVCYQCLEEGKHSSHEVK

- Variants of: B1
- test_protocol: protein stability index of a GFP-peptide fusion (GPS, HEK-293T) (PSI 1-6); higher = more stable;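 further: lentivirally expressed fusions sorted by FACS into six bins by GFP to DsRed ratio, PSI derived from sequencing read proportions per bin multiplied by bin number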
- measurement_conditions: c terminus: a fixed tail appended
Label rule, in plain words: protein stability index of 4 and up is Met, under 4 is Not met.

V23P    Met
G16I    Not met
C4Q    Not met
C4K    Met
L13E    Met

q: Answer whether protein stability index of V23L is greater than or equal to 4.
a: Not met

q: Please tell me: is the variant H18K at or over 4 in terms of protein stability index?
a: Not met

q: Say whether E14Q shows protein stability index of 4 or more.
a: Met

q: Could you tell me if the measured protein stability index of E22H reaches 4 or more?
a: Not met

q: Check this variant for protein stability index at or above 4: Q11M
a: Not met

q: Given the entry E14N , answer whether its protein stability index meets or surpasses 4.
a: Not met

q: Hi team, for P7T , is the recorded protein stability index at or above 4?
a: Not met

q: Say whether Q3Y shows protein stability index of 4 or more.
a: Not met

q: Dear colleague, could you confirm whether V2D has protein stability index at or above 4?
a: Met

q: # check: protein stability index of E22N is greater than or equal to 4
a: Not met

q: Could you please find out whether E15Y has protein stability index that meets 4 or exceeds it?
a: Not met
